Test system: HPPD polypeptides
method-notes: coupled HPPD activity assay: turnover and residual turnover in crude extracts
Format: biochemical, Pseudomonas fluorescens
assay-setup: 100 μM Cmpd. 1; signal change with inhibitor divided by signal change without inhibitor
assay-readout: Residual turnover [%]
Be sure to follow the number with its unit.

**Q:** Query (molecule): 53 (protein, mutant HPPD polypeptide) MADLYENPMGLMGFEFIEFASPTPGTLEPIFEIMGFTKVATHRSKNVHLYRQGEINLILNNEPNSIASYFAAEHGPSVCGMAFRVKDSQKAYNRALELGAQPIHIDTGPMELNLPAIKGIGGAPLYLIDRFGEGSSIYDIDFVYLEGVERNPVGAGLKVIDHLTHNVYRGRMVYWANFYEKLFNFREARYFDIKGEYTGLTSKAMSAPDGMIRIPLNEESSKGAGQIEEFLMQFNGEGIQHVAFLTDDLVKTWDALKKIGMRFMTAPADNYYEMLEGRLPDHGEPVDQLQARGILLDGSSVEGDKRLLLQIFSETLMGPVFFEFIQRKGDDGFGPDSFKVLFEQVERDQVRRGVLTAD ; field requested: Residual turnover [%]
**A:** 54%
